Target: Human BCMA (human) (UniProt Q02223)
Experiment: SPR, IgG immobilised, huBCMA analyte, 37 C
property.name: kon (M⁻¹ s⁻¹)
# number only, unit M⁻¹ s⁻¹ dropped from output

Please review the following examples before continuing.
- binder: "L3.PY/L1.FF/H3.AQ (antibody, V domains shown, IgG) VH: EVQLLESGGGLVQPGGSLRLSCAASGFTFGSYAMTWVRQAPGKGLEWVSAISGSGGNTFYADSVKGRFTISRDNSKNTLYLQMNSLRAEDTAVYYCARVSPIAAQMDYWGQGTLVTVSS VL: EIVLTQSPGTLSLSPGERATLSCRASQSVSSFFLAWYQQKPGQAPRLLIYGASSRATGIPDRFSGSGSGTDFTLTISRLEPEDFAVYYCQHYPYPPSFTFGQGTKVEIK"
  property.name: "kon"
  units: "M⁻¹ s⁻¹"
  observed.measurement: "3.32e+06"
- binder: "L3.PY/L3.KF/H3.AE (antibody, V domains shown, IgG) VH: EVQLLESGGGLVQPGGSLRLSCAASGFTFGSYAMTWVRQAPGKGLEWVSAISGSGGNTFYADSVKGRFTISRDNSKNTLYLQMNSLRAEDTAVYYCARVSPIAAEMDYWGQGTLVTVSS VL: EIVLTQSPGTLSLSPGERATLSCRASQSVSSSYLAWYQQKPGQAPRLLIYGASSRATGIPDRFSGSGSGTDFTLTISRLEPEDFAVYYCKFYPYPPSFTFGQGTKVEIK"
  property.name: "kon"
  units: "M⁻¹ s⁻¹"
  observed.measurement: "3.07e+06"
- binder: "L3.PY/L3.KF/H3.YA (antibody, V domains shown, IgG) VH: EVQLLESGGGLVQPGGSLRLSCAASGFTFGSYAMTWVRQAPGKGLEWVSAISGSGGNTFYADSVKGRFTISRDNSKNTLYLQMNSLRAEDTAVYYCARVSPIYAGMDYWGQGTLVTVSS VL: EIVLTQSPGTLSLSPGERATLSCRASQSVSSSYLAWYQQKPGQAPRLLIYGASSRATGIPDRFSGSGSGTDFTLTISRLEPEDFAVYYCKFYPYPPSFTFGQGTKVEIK"
  property.name: "kon"
  units: "M⁻¹ s⁻¹"
  observed.measurement: "3.12e+06"

Consider now this further binder.
Q: Given L3.PY/L3.KY/H2.HA (antibody, V domains shown, IgG) VH: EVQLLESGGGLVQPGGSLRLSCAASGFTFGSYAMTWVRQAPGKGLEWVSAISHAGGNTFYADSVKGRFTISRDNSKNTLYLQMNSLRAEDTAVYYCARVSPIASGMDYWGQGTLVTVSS VL: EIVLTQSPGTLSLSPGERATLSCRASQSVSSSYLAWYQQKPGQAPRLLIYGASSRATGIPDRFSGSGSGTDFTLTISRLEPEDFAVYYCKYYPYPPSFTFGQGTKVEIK , respond with its kon.
Ans: 3.29e+06
